molecular target: Ubiquitin carboxyl-terminal hydrolase 17-like protein 5 (Homo sapiens) (UniProt A8MUK1); assay: inhibitors of human USP17 deubiquitinase (AID 1645855); conditions: purified USP17, Ub-rhodamine cleavage fluorescence, 3 h; at 50 µM; active compounds read high
Sequence (A8MUK1 whole entry, looked up): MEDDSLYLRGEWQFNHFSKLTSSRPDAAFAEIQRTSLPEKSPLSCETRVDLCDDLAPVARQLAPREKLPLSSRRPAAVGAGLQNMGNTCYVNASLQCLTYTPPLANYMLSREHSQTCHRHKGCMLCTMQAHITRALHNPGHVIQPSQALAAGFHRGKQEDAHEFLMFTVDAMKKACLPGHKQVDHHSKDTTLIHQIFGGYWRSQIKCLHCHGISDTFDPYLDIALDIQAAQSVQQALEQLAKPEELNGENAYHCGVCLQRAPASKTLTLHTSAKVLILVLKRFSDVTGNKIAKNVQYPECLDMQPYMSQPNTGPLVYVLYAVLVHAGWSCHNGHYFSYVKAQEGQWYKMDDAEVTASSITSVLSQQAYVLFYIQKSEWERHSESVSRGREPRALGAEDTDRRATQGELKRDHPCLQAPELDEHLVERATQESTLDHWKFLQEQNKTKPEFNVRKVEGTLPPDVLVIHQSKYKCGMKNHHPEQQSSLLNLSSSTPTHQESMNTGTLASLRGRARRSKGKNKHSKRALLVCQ
About 3,100 (6.6%) of roughly 47,000 compounds were called active. For the sample, actives were picked, then their nearest neighbours and some compounds at random.
The compounds listed here are annotated with their inhibition.
measured.attribute: inhibition (%)

> print(dat)
                                    compound  unit.string  result.number
 1  c1coc(CNc2nc(Nc3cccc4ccccc34)nc3ccccc23)c1            %           83.4
 2  CN(CC(=O)Nc1ccc(F)cc1Cl)Cc1ccc2c(c1)OCO2            %          -5.43
 3  Cc1nn(-c2ccccc2)c(C)c1S(=O)(=O)Nc1ccccc1C(N)=O            %           7.84
 4  Cc1oc(C2CCC2)nc1C(=O)NCCc1c[nH]c2ccccc12            %           7.03
 5  Fc1ccc(-n2cc(-c3ccccc3)c3c(NCc4ccco4)ncnc32)cc1            %          -3.63
 6  CC(=O)Nc1ccc(S(=O)(=O)NCCSc2ccc(C)cc2)cc1            %          -12.3
 7  CC1CCN(c2ncc3c(n2)CCC(C(=O)NC(C)c2cccnc2)C3)CC1 (configuration not stated)            %          -33.2
 8  O=C(Nc1nc2ccc(S(=O)(=O)N3CCOCC3)cc2s1)c1cc2ccccc2oc1=O            %           34.2
 9  COc1ccc(-c2cc(C(=O)Nc3cccc(C)c3C)c3ccccc3n2)cc1OC            %          -1.61
10         CNC(=O)c1cnc2scc(-c3ccccc3)n2c1=O            %           1.82
11     CC(=O)N1CCN(c2cc(N3CCCCC3)nc(C)n2)CC1            %          -36.6
12  COc1ccc(C(NC(=O)CN(C)Cc2ccc3c(c2)OCO3)c2ccccc2)cc1 (configuration not stated)            %           35.3
13   Cn1nc(C(=O)NCCN2CCOCC2)c2c1-c1ccccc1CC2            %           2.07
14  CC(=O)N1c2ncnn2C(c2ccc(Cl)cc2)CC1c1ccc(Cl)cc1 (configuration not stated)            %          -2.75
15  CC(=O)Nc1ccc(S(=O)(=O)NCc2ccc(C(=O)NCc3ccc(C)cc3)cc2)cc1            %           52.9
16  Cc1c(N2CCN(S(=O)(=O)c3ccc(C(C)C)cc3)CC2)c(=O)n(C)c(=O)n1C            %          -2.36
17  CCOC(=O)c1c(NC(=O)CNc2cc(C)ccc2C)sc(Cc2ccc3c(c2)OCO3)c1C            %           5.67
18  O=C(CCc1csc(NC(=O)c2ccc(=O)[nH]c2)n1)NCCc1c[nH]c2ccccc12            %           36.5
19  Cc1nc(-c2ccc(C)c(S(=O)(=O)NCc3ccccc3Cl)c2)cs1            %             28
20              CC(=O)CSc1nnc(-c2ccccc2Br)o1            %            2.6
21  O=C(O)C1CCCN1C(=O)C1CCN(S(=O)(=O)c2ccccc2)CC1 (configuration not stated)            %         0.0755
22  Cc1ccc(Nc2nc(O)c(CC(=O)Nc3ccc(C(C)C)cc3)s2)cc1C            %           6.68
